System: SF-268
assay_protocol: NCI-60 anticancer screening (SRB)
Assay type: cell-based
details: Homo sapiens; SF-268, CNS cancer; one dose 10 μM; read-out: Growth Inhibition Percentage (GI %)
Reported inhibition at 10 µM values for a set of compounds
Lab book: enter the figure in %, no units written.

IN: # lookup: inhibition at 10 µM of CCOC(=O)C1=C(N)N(c2ccc(Cl)cc2)C2=C(C(=O)CC(C)(C)C2)C1c1ccc(Cl)cc1 (racemic)
OUT: 22

IN: I would be grateful if you could share the reported inhibition at 10 µM for CCOC(=O)C1=C(N)N(c2ccccc2)C2=C(C(=O)CC(C)(C)C2)C1c1ccccc1Cl (racemic) .
OUT: 20

IN: Which inhibition at 10 µM reading was recorded for the compound CCOC(=O)C1=C(N)N(c2ccc(Cl)cc2)C2=C(C(=O)CC(C)(C)C2)C1c1ccccc1OC (racemic) ?
OUT: 27

The reported measurements were obtained from paper PMC10408569.
